Data origin: the supplement of paper PMC10065799

Measurement target: FGFR3 (UniProt P22607)
Sequence (P22607 whole entry, looked up): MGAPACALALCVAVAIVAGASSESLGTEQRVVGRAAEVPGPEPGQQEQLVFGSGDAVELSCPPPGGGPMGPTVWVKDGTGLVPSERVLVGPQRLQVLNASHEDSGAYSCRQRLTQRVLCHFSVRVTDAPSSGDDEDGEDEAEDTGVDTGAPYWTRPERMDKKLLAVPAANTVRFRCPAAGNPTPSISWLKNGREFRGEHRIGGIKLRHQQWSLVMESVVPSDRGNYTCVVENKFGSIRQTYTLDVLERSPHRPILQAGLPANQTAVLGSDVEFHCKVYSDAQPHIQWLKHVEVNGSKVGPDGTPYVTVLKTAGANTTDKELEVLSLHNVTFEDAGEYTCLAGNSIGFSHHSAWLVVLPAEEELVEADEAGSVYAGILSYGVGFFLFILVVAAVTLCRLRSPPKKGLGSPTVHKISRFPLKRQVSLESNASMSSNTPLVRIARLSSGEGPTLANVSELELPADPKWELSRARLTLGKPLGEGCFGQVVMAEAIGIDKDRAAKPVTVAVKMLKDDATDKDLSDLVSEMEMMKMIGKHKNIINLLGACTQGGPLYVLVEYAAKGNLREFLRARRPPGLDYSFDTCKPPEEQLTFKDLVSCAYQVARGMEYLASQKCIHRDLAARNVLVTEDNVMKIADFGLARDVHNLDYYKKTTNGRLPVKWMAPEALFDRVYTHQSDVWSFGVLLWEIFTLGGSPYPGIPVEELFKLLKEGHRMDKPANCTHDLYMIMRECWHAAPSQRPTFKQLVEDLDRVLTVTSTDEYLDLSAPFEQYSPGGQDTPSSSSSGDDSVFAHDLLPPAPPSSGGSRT
Assay: phosphorylation enrichment, bacterial display (enrichment ratio); higher = better substrate or ligand; peptides without Tyr show the background
List of phosphorylation enrichment values.
Measure name: phosphorylation enrichment

Sequence input	Measurement target	Recorded number
DEGVNYFMSKG [FBXO8_Y156]	FGFR3 (UniProt P22607)	0.926
VNQSGYTLIRK [ATP6V0A2_Y688_R685Q]	FGFR3 (UniProt P22607)	0.465
YASALYGQRRS [FGF11_Y162_R163G]	FGFR3 (UniProt P22607)	0.408
VAHAVYQAVLS [SMG1_Y549]	FGFR3 (UniProt P22607)	0.591
FGISGYVVDSV [MAP2K3_Y214_L215V]	FGFR3 (UniProt P22607)	0.623
ELAVNYQEQAS [SLC9A9_Y591_I589V]	FGFR3 (UniProt P22607)	0.883
QLQVFYATRDQ [MIPEP_Y579_L582R]	FGFR3 (UniProt P22607)	1

====

Test system: Fer (mouse)
Assay: phosphorylation enrichment, bacterial display (enrichment ratio); higher = better substrate or ligand; peptides without Tyr show the background
Measure name: phosphorylation enrichment

Sequence input	Measurement target	Recorded number
GFRVCYTPDSR [PTPRF_Y451_Y450C_YF]	Fer (mouse)	0.548
YLELNYKEDEY [MME_Y502]	Fer (mouse)	0.55
YSQNIYIQNRN [PKP2_Y631]	Fer (mouse)	0.489
KDFETYQPFQN [CTNND2_Y1157_YF]	Fer (mouse)	0.612
ASNNPYFRDQA [RPGRIP1_Y846]	Fer (mouse)	0.434
NPSFNYEIVNQ [DYNC1H1_Y3379_R3384Q_YF]	Fer (mouse)	1.12
SISLRYEGRVF [ABL1_Y167_YF]	Fer (mouse)	0.686

====

Measurement target: c-Src SH2
Assay: SH2 binding enrichment of the phosphorylated peptide, bacterial display (enrichment ratio); higher = better substrate or ligand; peptides without Tyr show the background
Cut-off 0.7 on SH2 binding enrichment, inclusive. At or above means y; below means n.

Sequence input	Class assignment
RLLVVYSWTQR [HBB_Y36_P37S]	y
YGGRDYSLDEF [MYOF_Y1705]	y
KILGRYFETSS [PAX2_Y72_G76S_YF]	n
VPANRYDLLRL [FARSB_Y72_C76R]	y
RLAKTYETTLE [ALB_Y377]	n
VNQSGYTLIRK [ATP6V0A2_Y688_R685Q]	y
DGTESYHTVSS [PLK1_Y462_L463H]	y
DHYNQYEQQKM [CHD7_Y75]	n
TILEHYRRTHC [MYBPC3_Y1119_V1115I]	n
LDLPGYCPLRE [CCDC116_Y291]	n
RGGWAYVLHPT [TRMT61A_Y67_V66A]	n
LFEDRYLLGTS [ASS1_Y87_YF]	n

====

Measurement target: SHP2-C SH2
Assay: SH2 binding enrichment of the phosphorylated peptide, bacterial display (enrichment ratio); higher = better substrate or ligand; peptides without Tyr show the background
Tick YES if SH2 binding enrichment is 0.6 or greater. Tick NO if SH2 binding enrichment is less than 0.6.

Sequence input	Class assignment
KVFRVYQGQQP [MUTYH_Y494]	NO
NDQPDYDSVAS [GIT2_Y392]	YES
REIIAYQPYGK [PRKCG_Y529_P524R]	NO
KLVQLYGVCTK [BTK_Y461]	YES
FSLPAFMDRRD [COX4I1_Y38_Y38F]	YES
QTEAEYRFIFM [PTPN11_Y511_Q510E_YF]	NO
KLIMECLPFGS [JAK2_Y931_Y931C_YF]	NO
SPPPAYTPMSG [ERBB4_Y1056]	YES
RIFDYYSARKT [STOX1_Y858_A863T]	YES
KDHPDYKFQAR [SOX10_Y171_P175A_YF]	YES
QLPRGYISIPV [BAG3_Y205]	YES
SSVAGYACLAY [MVD_Y131_A128V]	YES
QSSALYEDCYL [ASS1_Y83_R86C]	NO
FKNGDYSEVMK [LCT_Y1638_N1639S]	YES
KFMVGYEMLAK [GALT_Y339_Q344K]	NO
FLNSIYKCRDE [ROS1_Y2227_S2229C]	YES
PVQAPYQKVVA [HBB_Y131_A130P]	YES
LKALHYMVQTS [SACS_Y3367]	YES
LFEDRYLLGPS [ASS1_Y87_T91P_YF]	NO
TTKGSYSLYVR [HCK_Y180_S183Y]	YES
KKGMIYGGGGG [PSME1_Y249_T244K]	YES
KVVQEYERVII [NPHS2_Y131]	YES
LKLKAYRFSIS [LCT_Y974_V971L]	YES
IAAEFYDNLPH [DEGS1_Y284_YF]	YES
KACKHYLTKRT [ZBTB5_Y118_T121K]	YES
PKGIGYGQGAG [CSRP3_Y73]	NO
ANSSFHSTRSA [NUMA1_Y1836_Y1836H]	NO
MAFDRYAAICS [OR8H2_Y123_H120Y_YF]	YES
GSESDYIVMPN [SCARB1_Y133]	NO
LERYIYNRQEF [HLA-DPB1_Y59_E62Q]	YES
KDHLDYKYQPR [SOX9_Y172_P170L]	YES
AIIGIYNLRDD [CDH23_Y2949_I2950N]	YES
KMKGDYYRYLA [YWHAG_Y130]	YES
YTGNTYRVGDT [FN1_Y106]	NO
LLILEYAKYGS [RET_Y806_V804L]	YES
KVGNEYVNKGQ [MYH7_Y410_T412N]	YES
FSTPPYLLEAA [BRIP1_Y921_S919P_YF]	YES
AKAEIYEMRPL [COX10_Y97]	YES
KKCTRYIDCDR [ASPA_Y64_L69R]	YES
GGRKGYGDFSR [RECQL5_Y478]	YES
EPTPGYEVSQR [TSC2_Y1788_G1791S]	YES
QDLTDYLMKIL [ACTA2_Y190_R185Q]	YES
QMVGMYASFFM [AVPR2_Y124_S127F_YF]	YES
VIKDKYPKAHF [APTX_Y209_R213H_YF]	YES
LTMAPYSSVSV [FAM81A_Y24_L29V]	YES
AGQEDYDRLRP [CDC42_Y64]	YES
QGIIIYKAAFF [SLC25A4_Y187_R188K_YF]	NO
SYCYRYRCAAW [SUMF1_Y344_R349W]	YES
HYEDGYPGGSD [CTNND1_Y221]	YES
NFRTIYVNANE [KCNH2_Y475_T474I]	YES
LEFNEYFRDLN [HPRT1_Y198_D194E_YF]	YES
FCVDCYKNFVA [FHL1_Y213_YF]	YES
PIYEGYGLPHA [ACTA1_Y171_A172G]	NO

====

Measurement target: Grb2 SH2 (UniProt P62993)
Sequence (P62993 whole entry, looked up): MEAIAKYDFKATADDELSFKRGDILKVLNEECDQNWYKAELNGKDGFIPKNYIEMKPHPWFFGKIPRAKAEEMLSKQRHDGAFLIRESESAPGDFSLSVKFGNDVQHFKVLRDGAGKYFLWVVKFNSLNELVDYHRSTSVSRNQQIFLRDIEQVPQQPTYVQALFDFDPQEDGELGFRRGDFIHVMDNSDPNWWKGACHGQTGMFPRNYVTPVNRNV
Assay: SH2 binding enrichment of the phosphorylated peptide, bacterial display (enrichment ratio); higher = better substrate or ligand; peptides without Tyr show the background
Rule: SH2 binding enrichment of 0.9 or more gives Fulfilled; anything lower gives Not fulfilled.

Sequence input	Class assignment
SVGVPYEPPEV [TP53_Y220_V217G]	Not fulfilled
DKTGEYPVPLI [ACADM_Y73]	Not fulfilled
GRPLFYWLTGC [LYZL6_Y140]	Not fulfilled
CEHFSYYGMKA [SLC15A2_Y60_R57H]	Fulfilled
DTFDPYLDIAL [USP36_Y268_V271I_YF]	Fulfilled
VLPIDYYFPPQ [AR_Y552]	Fulfilled
VKPHRYRPGTV [H3-5_Y41]	Not fulfilled
PSALGYSPSLR [LLGL2_Y40]	Fulfilled
TINPIYEHVGY [CHN1_Y143]	Not fulfilled
FFCRWYRNQKS [EREG_Y144_R147Q_YF]	Not fulfilled
REGAKYVSHDA [ASS1_Y113_G117D]	Not fulfilled
YASALYGQRRS [FGF11_Y162_R163G]	Not fulfilled
YFRDGHMPRQY [GSS_Y270_Y270H]	Fulfilled
IEDPYYGNDFD [ACP1_Y133_S137F]	Not fulfilled
HQIQSYTCEID [DES_Y331]	Fulfilled
ERDFTYDELLN [EIF2S2_Y176_E177D_YF]	Fulfilled
YNDSAYNQQLI [ZPLD1_Y198_T197A]	Not fulfilled
PLLLSYYLIKW [NUP160_Y773]	Fulfilled
YRQLQYCPSVE [CTNND2_Y508]	Not fulfilled
KQFWRYFPGNL [SLC25A4_Y112_A114P]	Fulfilled
QEGPEYWDQET [HLA-A_Y83]	Not fulfilled
LFSLGYHQSLW [GANAB_Y396_R400L]	Fulfilled
ALTDNYMYVVI [HAGH_Y61_L64V]	Not fulfilled
VIKDKYPKAHF [APTX_Y209_R213H_YF]	Fulfilled
SECCKYKTDNP [OSMR_Y689_I691T]	Not fulfilled
SYCYRYRCAAW [SUMF1_Y344_R349W]	Fulfilled
LAAAKYKLNVD [SMARCA2_Y1190]	Not fulfilled
YCIDHYLGKEM [G6PD_Y202_R198C]	Fulfilled
DTKDDYNALSV [IL17RB_Y457]	Not fulfilled
EVVGRYSGHNA [MLH1_Y183_V185G]	Not fulfilled
SGPRHYTIAAL [TTR_Y125_R124H]	Fulfilled
IIEDPYFGNDF [ACP1_Y132_S137F_YF]	Not fulfilled
KDQPDYKYQPR [SOX9_Y172_H169Q]	Fulfilled
TCFDKYTGNTF [FN1_Y101_YF]	Not fulfilled
LSRDVYEEDSY [RET_Y900]	Not fulfilled
ENRKYYKDLKE [PURA_Y156_M157K]	Not fulfilled
VPLLEYFWDIF [CDAN1_Y712_R714W_YF]	Fulfilled
MDYRSYPREYG [RBM10_Y44]	Not fulfilled
KGSEGYLAAIF [NF1_Y2503_T2507I_YF]	Not fulfilled
VDTFWYKFLKP [EPM2A_Y86_R91P]	Not fulfilled
PVGVLYKVKVY [PTS_Y128]	Not fulfilled
KALKQYRAGPS [DDX27_Y763]	Fulfilled
FGLQAYTEVKT [ALDH2_Y502_YF]	Not fulfilled
RRGTRYMFSRP [RPL21_Y13]	Not fulfilled
QGIIIYKAAFF [SLC25A4_Y187_R188K_YF]	Fulfilled
SGIYQYIIAKF [FOXL2_Y83]	Fulfilled
PKEEPYQMQEK [SLC5A3_Y565]	Not fulfilled
